System: Poa annua (annual bluegrass) seeds
Experiment: Standard GAF Bioassay System (Standard Poa Bioassay), seed germination scored after 7 days
Format: in vivo
Conditions: GAF Conc. 0; metal 25 μM
Protocol: The seed of Poa annua (or other test seeds) were surface-sterilized by placing two to five grams of seeds in a 50 ml glass beaker, covering the seeds with a 50% (v/v) solution of H2SO4, and stirring vigorously for 5 minutes. The seed/acid mixture was filtered through a Gooch crucible and repeatedly rinsed with tap water to remove residual acid. The seeds were then placed in a beaker and covered with bleach (Clorox®, NaOCl, 5.25%) containing 1% (v/v) polyoxethylene sorbitan monolaurate (Tween®-20). […]
Threshold 3. POA BIOASSAY SCORES (±Standard Error of the Mean) below it: 1. POA BIOASSAY SCORES (±Standard Error of the Mean) at it or above: 0.

Reference set (3 entries):
smiles_code=[Cl-].[Cl-].[Zn+2] classification=0
smiles_code=O=S(=O)([O-])[O-].[Fe+2] classification=0
smiles_code=[Ca+2].[Cl-].[Cl-] classification=0

Does this compound meet the criterion POA BIOASSAY SCORES (±Standard Error of the Mean) < 3? [Cl][Ni][Cl]
1

# check: POA BIOASSAY SCORES (±Standard Error of the Mean) < 3 for [Cl][Cu][Cl]
1

Cited source: patent US20100093536A1
